Cited source for all entries: patent US11066396B2

- subject_of_test: HDAC1 (Homo sapiens (Human), UniProt Q13547)
- Sequence (Q13547 whole entry): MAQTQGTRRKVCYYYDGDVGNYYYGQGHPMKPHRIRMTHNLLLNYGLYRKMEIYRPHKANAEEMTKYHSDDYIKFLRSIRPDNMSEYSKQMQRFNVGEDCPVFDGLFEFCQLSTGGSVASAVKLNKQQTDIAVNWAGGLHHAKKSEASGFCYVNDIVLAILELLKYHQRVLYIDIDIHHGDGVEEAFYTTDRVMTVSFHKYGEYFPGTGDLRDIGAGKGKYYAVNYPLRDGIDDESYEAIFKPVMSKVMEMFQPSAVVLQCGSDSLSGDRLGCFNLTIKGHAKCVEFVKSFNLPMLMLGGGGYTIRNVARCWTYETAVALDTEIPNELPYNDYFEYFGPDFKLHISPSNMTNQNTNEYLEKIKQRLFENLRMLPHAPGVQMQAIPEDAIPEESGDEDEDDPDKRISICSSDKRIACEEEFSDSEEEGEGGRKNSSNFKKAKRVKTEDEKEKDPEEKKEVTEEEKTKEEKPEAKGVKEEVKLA
value_kind: IC50 (µM)

[[record]]
compound = "COCCn1nc(C(=O)N(Cc2ccc(-c3noc(C(F)(F)F)n3)cc2)c2cccc(C(F)(F)F)c2)ccc1=O"
value_kind = "IC50"
units_text = "µM"
number = 1.2

[[record]]
compound = "Cc1ccc(NCc2ccc(-c3noc(C(F)(F)F)n3)cn2)cn1"
value_kind = "IC50"
units_text = "µM"
number = 0.43

[[record]]
compound = "FC(F)(F)c1nc(-c2ccnc(OCc3ncccc3Cl)c2Cl)no1"
value_kind = "IC50"
units_text = "µM"
number = 17

[[record]]
compound = "O=C1CCc2cccnc2N1Cc1ccc(-c2noc(C(F)(F)F)n2)cn1"
value_kind = "IC50"
units_text = "µM"
number = 3.7

[[record]]
compound = "CC1(C)C(=O)NCCN1C(=O)[C@@H]1CCC(=O)N1c1ccc(-c2noc(C(F)(F)F)n2)c(F)c1"
value_kind = "IC50"
units_text = "µM"
number = 43

[[record]]
compound = "Cc1ccc(OCc2ccc(-c3noc(C(F)(F)F)n3)c(F)c2)nn1"
value_kind = "IC50"
units_text = "µM"
number = 5.3

[[record]]
compound = "FC(F)(F)c1nc(-c2ccc(COc3cc(Cl)ncn3)nc2)no1"
value_kind = "IC50"
units_text = "µM"
number = 4.2

[[record]]
compound = "Cc1cnc(COc2cc(-c3noc(C(F)(F)F)n3)ccn2)cn1"
value_kind = "IC50"
units_text = "µM"
number = 1.9

[[record]]
compound = "CC(Oc1cc(-c2noc(C(F)(F)F)n2)ccn1)c1nc2ccccc2[nH]1 (racemic)"
value_kind = "IC50"
units_text = "µM"
number = 0.13

[[record]]
compound = "FC(F)(F)c1nc(-c2ccc(N3CCOCC3c3cccnc3)nc2)no1 (centres unmarked) [Example 133]"
value_kind = "IC50"
units_text = "µM"
number = 0.16

[[record]]
compound = "CC(C)c1ncc(C(=O)N(Cc2ccc(-c3noc(C(F)(F)F)n3)cn2)c2cccc(F)c2)cn1"
value_kind = "IC50"
units_text = "µM"
number = 0.17

[[record]]
compound = "O=C1COC[C@@H](c2ccccc2)N1c1cnc(-c2noc(C(F)(F)F)n2)cn1"
value_kind = "IC50"
units_text = "µM"
number = 2.9

[[record]]
compound = "Cc1nc2ccc(F)cc2n1Cc1ccc(-c2noc(C(F)(F)F)n2)cn1"
value_kind = "IC50"
units_text = "µM"
number = 0.72

[[record]]
compound = "Cn1ncc(NCc2ccc(-c3noc(C(F)(F)F)n3)cn2)n1"
value_kind = "IC50"
units_text = "µM"
number = 1.3

[[record]]
compound = "O=C(NCc1ccc(-c2noc(C(F)(F)F)n2)cc1)c1cccc(O)c1"
value_kind = "IC50"
units_text = "µM"
number = 0.72

[[record]]
compound = "O=C(NC(Cc1ccc(-c2noc(C(F)(F)F)n2)cn1)c1cccc(C(F)(F)F)c1)C(F)(F)F (centres unmarked)"
value_kind = "IC50"
units_text = "µM"
number = 1.3

[[record]]
compound = "Cc1n[nH]c2c1CC(NCc1ccc(-c3noc(C(F)(F)F)n3)cn1)CC2 (racemic)"
value_kind = "IC50"
units_text = "µM"
number = 0.4

[[record]]
compound = "FC(F)(F)c1nc(-c2ccnc(OCc3c(Cl)nc4sccn34)c2)no1"
value_kind = "IC50"
units_text = "µM"
number = 3.1

[[record]]
compound = "Fc1cc(COc2nnnc3ccccc23)ccc1-c1noc(C(F)(F)F)n1"
value_kind = "IC50"
units_text = "µM"
number = 2.9

[[record]]
compound = "Cc1ccc2c3c(nn2c1)CCC(NCc1ccc(-c2noc(C(F)(F)F)n2)cc1)C3 (racemic) [Example 355]"
value_kind = "IC50"
units_text = "µM"
number = 0.048

[[record]]
compound = "FC(F)(F)c1nc(-c2ccc(CNc3ncccn3)cc2)no1"
value_kind = "IC50"
units_text = "µM"
number = 5.3

[[record]]
compound = "O=C1CC[C@@H](c2nc3ccccc3o2)N1c1ccc(-c2noc(C(F)(F)F)n2)cc1"
value_kind = "IC50"
units_text = "µM"
number = 0.12

[[record]]
compound = "FC(F)(F)c1nc(-c2ccc(COc3ccc4ccccc4n3)nc2)no1"
value_kind = "IC50"
units_text = "µM"
number = 0.5

[[record]]
compound = "O=C(Cn1ncccc1=O)N(Cc1ccc(-c2noc(C(F)(F)F)n2)cc1)c1cccc(C(F)(F)F)c1"
value_kind = "IC50"
units_text = "µM"
number = 0.96

[[record]]
compound = "FC(F)(F)c1nc(-c2ccnc(OCc3cncc(N4CCNCC4)n3)c2)no1"
value_kind = "IC50"
units_text = "µM"
number = 1.1

[[record]]
compound = "O=C([C@@H]1CCC(=O)N1c1cc(F)c(-c2noc(C(F)(F)F)n2)cc1F)N1CCc2ccccc2C1"
value_kind = "IC50"
units_text = "µM"
number = 1.2

[[record]]
compound = "CC(C)(C)OC(=O)[C@@H]1COCC(=O)N1c1ccc(-c2noc(C(F)(F)F)n2)c(F)c1"
value_kind = "IC50"
units_text = "µM"
number = 0.87

[[record]]
compound = "O=C1COC[C@H](CNCc2ccc(-c3noc(C(F)(F)F)n3)cn2)N1"
value_kind = "IC50"
units_text = "µM"
number = 2.5

[[record]]
compound = "O=c1ccc2ccccc2n1Cc1ccc(-c2noc(C(F)(F)F)n2)cc1"
value_kind = "IC50"
units_text = "µM"
number = 0.76

